# SYSTEM_NAME: MAL^TIR (Homo sapiens, UniProt P58753)
# Construct: MAL (residues 79–221); 6xHis; made in house; host or cells: E. coli BL21 (DE3)
# Sequence (P58753 79-221): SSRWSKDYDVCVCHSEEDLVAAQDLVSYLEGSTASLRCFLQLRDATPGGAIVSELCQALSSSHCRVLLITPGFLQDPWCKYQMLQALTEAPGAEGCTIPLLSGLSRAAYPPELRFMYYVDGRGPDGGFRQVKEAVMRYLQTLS
# METHOD: T‐Surf phage library (P8 and P3) selection against MAL^TIR, four rounds, NGS read counts
# Format: binding
# DETAILS: P3 library, selection against MAL, rank by count after grouping
Entries annotated with measured P3_MAL Rank (after)
No unit in the answer, only the number.

| SEQUENCE | P3_MAL Rank (after) |
| --- | --- |
| KIWGWRDALSRNPH | 762 |
| LVAHEISKKMNIFATV | 764 |
| RLLKWKEALHHVLQK | 690 |
| WHFHLRLRMHDLLQNI | 738 |
| RLLKWWDSLTQASNI | 727 |
| DWFLSKLSQHLLKRAK | 682 |
| SLRKKLVRNLIEEFKR | 688 |
| NNLFNELVSKNIRTFT | 735 |
| SSFREGLWRLLALSTN | 723 |
| YAFTGHLERHEVQRGV | 715 |

Task: API: value(readout=P3_MAL Rank (after), system=MAL^TIR (Homo sapiens, UniProt P58753)) for record `DWFLSKLSQHILRHEK`
Result: 722

Task: API: value(readout=P3_MAL Rank (after), system=MAL^TIR (Homo sapiens, UniProt P58753)) for record `FMSHLYQGLLKGLIIT`
Result: 681

Task: API: value(readout=P3_MAL Rank (after), system=MAL^TIR (Homo sapiens, UniProt P58753)) for record `KERPFGAQRAEKWRA`
Result: 736

Task: API: value(readout=P3_MAL Rank (after), system=MAL^TIR (Homo sapiens, UniProt P58753)) for record `DWFVSKLSQQILQREK`
Result: 729

Task: API: value(readout=P3_MAL Rank (after), system=MAL^TIR (Homo sapiens, UniProt P58753)) for record `KMQKWKDALYEAANPT`
Result: 734

Task: API: value(readout=P3_MAL Rank (after), system=MAL^TIR (Homo sapiens, UniProt P58753)) for record `YAFTGHVPGYLVQRGV`
Result: 757

Task: API: value(readout=P3_MAL Rank (after), system=MAL^TIR (Homo sapiens, UniProt P58753)) for record `SSFREGLWRLLDLSKQ`
Result: 732

Task: API: value(readout=P3_MAL Rank (after), system=MAL^TIR (Homo sapiens, UniProt P58753)) for record `KHCWDRLCYMVNDSSR`
Result: 721

====

Entries annotated with measured P8_MAL Rank (before)
# SYSTEM_NAME: MAL^TIR (Homo sapiens)
# Construct: MAL (residues 79–221); 6xHis; made in house; host or cells: E. coli BL21 (DE3)
# METHOD: T‐Surf phage library (P8 and P3) selection against MAL^TIR, four rounds, NGS read counts
# Format: binding
# DETAILS: P8 library, selection against MAL, rank by count before grouping

| SEQUENCE | SYSTEM_NAME | P8_MAL Rank (before) |
| --- | --- | --- |
| PFLVHQYNEALQADSH | MAL^TIR (Homo sapiens) | 2330 |

Now look at this entry.
Task: Endpoint output: P8_MAL Rank (before) of `KLIQGWFLYRLMQIEQ` . Value?
Result: 2749
